target: Btk SH2 domain H364D (UniProt Q06187 270-387, H364D); assay: NMR titration
Sequence (Q06187 270-387 H364D): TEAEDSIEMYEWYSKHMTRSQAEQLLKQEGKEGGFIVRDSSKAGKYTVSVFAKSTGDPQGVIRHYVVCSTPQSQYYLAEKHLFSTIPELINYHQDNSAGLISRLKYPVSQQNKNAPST
pKd: −log10 of the molar value. Where no end group is shown, it is not given here. [ ]: non-standard residue; d: D form. pY = N[C@@H](Cc1ccc(OP(=O)(O)O)cc1)C(=O)O
measured-property: pKd

>>> readout_number("GDG[pY]EEISPLLL [Btk SH2 phospho-peptide ligand (GDGpYEEISPLLL)]")
3.30
